B1: EIF5 (parent)
chain: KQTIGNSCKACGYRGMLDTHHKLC

variants of: B1; assay: protein stability index of a GFP-peptide fusion (GPS, HEK-293T) (PSI 1-6); higher = more stable; conditions: c terminus: a fixed tail appended;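 also: lentivirally expressed fusions sorted by FACS into six bins by GFP to DsRed ratio, PSI derived from sequencing read proportions per bin multiplied by bin number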
What protein stability index was measured for each of the following?
Give only the figure.

Enquiry: Quick one: protein stability index for N6M ?
Return: 2.83

Enquiry: Moving on to Q2N
Return: 3.02

Enquiry: Moving on to K22Y
Return: 2.73

Enquiry: Moving on to Q2F
Return: 2.54

Enquiry: Moving on to A10D
Return: 3.68

Enquiry: Moving on to C24I
Return: 2.07

Enquiry: Moving on to G12F
Return: 1.73

Enquiry: Moving on to T3P
Return: 3.66

Enquiry: Moving on to C8E
Return: 2.68

Enquiry: Moving on to H21W
Return: 2.45

Enquiry: Moving on to Y13D
Return: 3.03

Enquiry: Moving on to G15M
Return: 1.84

Enquiry: Moving on to C24S
Return: 1.89

Enquiry: Moving on to K9N
Return: 2.79

Enquiry: Moving on to H20S
Return: 3.17

Enquiry: Moving on to G5M
Return: 4.13

Enquiry: Moving on to T3H
Return: 3.67

Enquiry: Moving on to D18N
Return: 2.88

Enquiry: Moving on to Y13E
Return: 3.75

Enquiry: Moving on to K1L
Return: 2.9

Enquiry: Moving on to C24E
Return: 2.11

Enquiry: Moving on to D18M
Return: 2.56

Enquiry: Moving on to G5S
Return: 2.95

Enquiry: Moving on to D18E
Return: 3.35

Enquiry: Moving on to C24G
Return: 1.63

Enquiry: Moving on to T19Y
Return: 2.71

Enquiry: Moving on to K9I
Return: 2.97

Enquiry: Moving on to D18H
Return: 3.07

Enquiry: Moving on to N6R
Return: 2.84

Enquiry: Moving on to Q2K
Return: 3.18

Enquiry: Moving on to K1E
Return: 2.95

Enquiry: Moving on to A10Y
Return: 4.03

Enquiry: Moving on to G15F
Return: 2.24

Enquiry: Moving on to H20C
Return: 2.75

Enquiry: Moving on to H21N
Return: 3.25

Enquiry: Moving on to G5A
Return: 3.23

Enquiry: Moving on to Q2I
Return: 2.51

Enquiry: Moving on to H21M
Return: 2.89

Enquiry: Moving on to G15N
Return: 2.45

Enquiry: Moving on to L17D
Return: 4.68

Enquiry: Moving on to T19I
Return: 2.68

Enquiry: Moving on to K22P
Return: 3.79

Enquiry: Moving on to K22R
Return: 2.34

Enquiry: Moving on to I4F
Return: 3.02

Enquiry: Moving on to L23H
Return: 4.67

Enquiry: Moving on to L17A
Return: 3.66

Enquiry: Moving on to D18Q
Return: 2.29

Enquiry: Moving on to T19F
Return: 2.17

Enquiry: Moving on to H20K
Return: 2.61

Enquiry: Moving on to K1D
Return: 3.88

Enquiry: Moving on to R14H
Return: 3.42

Enquiry: Moving on to H21A
Return: 2.7

Enquiry: Moving on to A10Q
Return: 3

Enquiry: Moving on to C8A
Return: 2.06

Enquiry: Moving on to C24L
Return: 1.92

Enquiry: Moving on to A10M
Return: 3.12

Enquiry: Moving on to C8F
Return: 1.44

Enquiry: Moving on to G15E
Return: 2.24

Enquiry: Moving on to C8V
Return: 1.78

Enquiry: Moving on to K9P
Return: 4.46

Enquiry: Moving on to T19A
Return: 3.29

Enquiry: Moving on to L23A
Return: 3.89

Enquiry: Moving on to N6S
Return: 3.24

Enquiry: Moving on to A10P
Return: 2.63

Enquiry: Moving on to N6K
Return: 3.11

Enquiry: Moving on to L23E
Return: 4.2

Enquiry: Moving on to S7T
Return: 3.29

Enquiry: Moving on to L23S
Return: 4.18

Enquiry: Moving on to G5L
Return: 2.37

Enquiry: Moving on to S7A
Return: 3.96

Enquiry: Moving on to C8N
Return: 2.78

Enquiry: Moving on to G5N
Return: 3.44

Enquiry: Moving on to Y13I
Return: 2.16

Enquiry: Moving on to I4S
Return: 3.75

Enquiry: Moving on to G5F
Return: 2.64

Enquiry: Moving on to M16W
Return: 2.62

Enquiry: Moving on to M16G
Return: 3.91

Enquiry: Moving on to A10R
Return: 3.27

Enquiry: Moving on to M16I
Return: 3.07

Enquiry: Moving on to M16C
Return: 3.75

Enquiry: Moving on to K9L
Return: 2.6

Enquiry: Moving on to N6V
Return: 3.52

Enquiry: Moving on to G5V
Return: 3.46

Enquiry: Moving on to G5R
Return: 2.53

Enquiry: Moving on to R14F
Return: 3.14

Enquiry: Moving on to A10K
Return: 3.29

Enquiry: Moving on to G12K
Return: 3.06

Enquiry: Moving on to K9F
Return: 2.16

Enquiry: Moving on to K1H
Return: 2.95

Enquiry: Moving on to T19P
Return: 2.81

Enquiry: Moving on to D18L
Return: 2.38
